Experiment: Volume of distribution at steady state in rat plasma at 2 mg/kg, iv
Type: ADME, organism-based
Set-up: dose 2 mg/kg, route intravenous
Settings: read-out: Vdss
readout: Vd (L/kg)

>  <compound.smiles>
CC(C)=CCC/C(C)=C/CC/C(C)=C/CC[C@@](C)(O)CCC1=C(C)C(=O)C(C)=C(C)C1=O

>  <readout>
Vd

>  <result.units>
L/kg

>  <val>
0.222

$$$$

###

Test: Tmax in mouse brain at 25 mg/kg, ip
Assay type: ADME, organism-based
Set-up: dose 25 mg/kg, route intraperitoneal

>  <molecule>
CC(C)=CCC/C(C)=C/CC/C(C)=C/CC[C@@](C)(O)CCC1=C(C)C(=O)C(C)=C(C)C1=O [VATIQUINONE]

>  <result.units>
h

>  <Tmax>
12

$$$$

###

Assay: Cmax in rat plasma at 10 mg/kg, po
Type: ADME, organism-based
Design: dose 10 mg/kg, route oral
readout: Cmax (µg/mL)

>  <compound.smiles>
CC(C)=CCC/C(C)=C/CC/C(C)=C/CC[C@@](C)(O)CCC1=C(C)C(=O)C(C)=C(C)C1=O

>  <readout>
Cmax

>  <val>
0.931

$$$$

###

Assay: AUCt in rat plasma at 10 mg/kg, po
Format: ADME, organism-based
Parameters: dose 10 mg/kg, route oral

>  <compound.smiles>
CC(C)=CCC/C(C)=C/CC/C(C)=C/CC[C@@](C)(O)CCC1=C(C)C(=O)C(C)=C(C)C1=O

>  <AUC(0-t)>
4730 ng·h/mL

$$$$

###

Assay: Terminal half life in mouse plasma at 25 mg/kg, ip
Type: ADME, organism-based
Set-up: dose 25 mg/kg, route intraperitoneal
Details: read-out: beta t1/2 (converted)
readout: half-life (min)

>  <compound.smiles>
CC(C)=CCC/C(C)=C/CC/C(C)=C/CC[C@@](C)(O)CCC1=C(C)C(=O)C(C)=C(C)C1=O

>  <val>
456

$$$$
